EXPERIMENT_NOTES: NCI Yeast Anticancer Drug Screen. Data for the mlh1 rad18 strain (AID 175)
CONDITION_LABEL: S. cerevisiae mlh1 rad18 strain growth inhibition; at 50.0 µM; active compounds read high
This is part of a sample that, as a whole, favours compounds with a hit. Of some 79,000 tested, about 15% had one in any assay. The source made the active and inactive calls. Cut-off read from the data, not from the text of the source: active = growth inhibition above about 70%; inactive = the rest.
Reported growth inhibition values for a set of molecules

Solved cases (3 shown):
>>> result("Cc1ccc(-c2cc(-c3ccco3)nc(N)n2)o1")
"1.75% (inactive)"
>>> result("COc1ccc(NS(=O)(=O)c2ccc(NCc3c4ccccc4nc4ccccc34)cc2)nn1")
"18.5% (inactive)"
>>> result("O=C(Nc1cccc(F)c1)Oc1ccc(OCc2ccccc2)cc1")
"16% (inactive)"

Now for a further molecule.
Q. Identify the reported growth inhibition for the following entry. O/N=C/c1nc2ccccc2s1
A. 23.8% (inactive)

* * *

Reported growth inhibition values for a set of molecules
EXPERIMENT_NOTES: NCI Yeast Anticancer Drug Screen. Data for the mec2-1 strain (AID 157)
CONDITION_LABEL: S. cerevisiae mec2-1 strain, at 50.0 µM, active compounds read high
This is part of a sample that, as a whole, favours compounds with a hit. Of some 79,000 tested, about 15% had one in any assay.
Give the value in % but do not write % after it.

>>> number("CCOC(OCC)C(N)C(=O)O (stereo not drawn)")
23.7
>>> number("COc1ccc(C(c2cc3c(cc2O)OCO3)n2ccnc2)cc1 (stereo not drawn)")
11.8
>>> number("N#CCc1ccc(-c2ccccc2)cc1")
20.9
>>> number("Cc1ccc(-n2cc(-c3ccc(Cl)cc3)c3c2N=CN2NC(c4cccs4)=NC32)cc1 (stereo not drawn)")
-5.8
>>> number("Cc1cccc(C(=O)NC(C)C)c1")
-40

Q. Identify the reported growth inhibition for the following entry. CO/C(=N\N=C\c1ccc(OC)c(OC)c1)c1ccncc1
A. -37.9

Q. Identify the reported growth inhibition for the following entry. CCCN(CCC)S(=O)(=O)c1ccc(NC(=O)Oc2ccccc2OC)cc1
A. 3.8

Q. Identify the reported growth inhibition for the following entry. CCOC(=O)c1ccc(NC(=O)Nc2cc(Cl)c(OC)cc2OC)cc1
A. 90.7

* * *

EXPERIMENT_NOTES: NCI Yeast Anticancer Drug Screen. Data for the bub3 strain (AID 167)
CONDITION_LABEL: S. cerevisiae bub3 mutant strain, at 50.0 µM, active compounds read high
This is part of a sample that, as a whole, favours compounds with a hit. Of some 79,000 tested, about 15% had one in any assay.
OBSERVABLE: growth inhibition (%)
Give the value in % but do not write % after it.

>>> number("[S-]c1n[n+](-c2ccccc2)c(-c2ccc(Cl)cc2)s1")
-4.85
>>> number("COc1c2c(cc3occ(-c4ccc(CC=C(C)C)cc4)c(=O)c13)OC(C)(C)C=C2")
-12.4
>>> number("CCOC(=O)NCC(C)(C)C")
-7.9

Q. Identify the reported growth inhibition for the following entry. CCOc1ccc(NC(=O)/C=C/c2ccco2)cc1
A. 5.3

* * *

EXPERIMENT_NOTES: NCI Yeast Anticancer Drug Screen. Data for the mec2-1 strain (AID 157)
CONDITION_LABEL: S. cerevisiae mec2-1 strain, at 50.0 µM, active compounds read high
Procedure: Growth inhibition of yeast strains with defined genetic alterations is measured as a screen for potential anti-cancer activity. Selected strains with alterations in DNA damage repair or cell cycle control were exposed to compounds and growth inhibition was measured relative to vehicle treated controls. The strain used in this assay is mec2-1
About 79,000 compounds went through this panel and 15% of them were active in at least one assay; those are over-represented in the sample as a whole.
OBSERVABLE: growth inhibition (%)
Give the value in % but do not write % after it.

Solved cases (4 shown):
>>> number("CC(=O)OCc1ccc(C)c(COC(C)=O)c1")
-20.6
>>> number("C=CCSc1nc2ccc(NCn3c(=S)sc4ccccc43)cc2s1")
65.2
>>> number("CC1(C)CC(=O)C(CC(C(=O)C(=O)Nc2cc(C(F)(F)F)ccc2Cl)C(=O)c2ccco2)C(=O)C1 (stereo not given)")
30.1
>>> number("NC(=O)CC[n+]1ccc(C(=O)O)cc1")
-31.7

Now for a further molecule.
Q. Identify the reported growth inhibition for the following entry. Cn1c([N+](=O)[O-])cnc1CN1CCN(CCO)CC1
A. -6.95

* * *

Reported growth inhibition values for a set of compounds
EXPERIMENT_NOTES: NCI Yeast Anticancer Drug Screen. Data for the bub3 strain (AID 167)
CONDITION_LABEL: S. cerevisiae bub3 mutant strain, at 50.0 µM, active compounds read high
Description: Growth inhibition of yeast strains with defined genetic alterations is measured as a screen for potential anti-cancer activity. Selected strains with alterations in DNA damage repair or cell cycle control were exposed to compounds and growth inhibition was measured relative to vehicle treated controls. The strain used in this assay is bub3
About 79,000 compounds went through this panel and 15% of them were active in at least one assay; those are over-represented in the sample as a whole.
Give the value in % but do not write % after it.

Solved cases (5 shown):
>>> number("CCC(CC)C(=O)OCCOCCOC")
23.6
>>> number("CC(=O)C1=C(C)NC2C=CC=CN12 (centres undefined)")
7.3
>>> number("O=c1c(SCc2ccc(Br)cc2)c(SCc2ccc(Br)cc2)cnn1-c1ccccc1")
13.4
>>> number("CC1OC(OC2C(OC(=O)[C@]34CCC(C)(C)C[C@H]3C3=CC[C@@H]5[C@@]6(C)CC[C@H](OC7OC(C(=O)O)C(O)C(OC8OCC(O)C(O)C8O)C7O)C(C)(C)[C@@H]6CC[C@@]5(C)[C@]3(C)CC4)OCC(O)C2O)C(O)C(OC2OCC(O)C(O)C2O)C1OC1OCC(O)C(OC2OCC(O)C(O)C2O)C1O (some centres undefined)")
38.4
>>> number("Nc1ccc(CCCCc2ccc(Cl)cc2Cl)cc1")
98

Q. Identify the reported growth inhibition for the following entry. CC(=O)O[C@H]1CC[C@@]2(C)C(=CC(=O)[C@H]3[C@@H]4CC[C@H]([C@H](C)CCCC(C)C)[C@@]4(C)CC[C@@H]32)C1
A. 5.9

Q. Identify the reported growth inhibition for the following entry. Cc1ccc(C2(C)CC/C(=N/N=C3/CCC(C)(c4ccc(C)c(C)c4)c4cc(C)c(C)cc43)c3cc(C)c(C)cc32)cc1C (centres undefined)
A. -11.4

Q. Identify the reported growth inhibition for the following entry. Ic1ccccn1
A. -8.15

Q. Identify the reported growth inhibition for the following entry. CCc1c(C)[nH]c(C2=NCCC2)c1C
A. -13.4

* * *

EXPERIMENT_NOTES: NCI Yeast Anticancer Drug Screen. Data for the mlh1 rad18 strain (AID 175)
CONDITION_LABEL: S. cerevisiae mlh1 rad18 strain growth inhibition; at 50.0 µM; active compounds read high
Procedure: Growth inhibition of yeast strains with defined genetic alterations is measured as a screen for potential anti-cancer activity. Selected strains with alterations in DNA damage repair or cell cycle control were exposed to compounds and growth inhibition was measured relative to vehicle treated controls. The strain used in this assay is mlh1 rad18
This is part of a sample that, as a whole, favours compounds with a hit. Of some 79,000 tested, about 15% had one in any assay.
Reported growth inhibition values for a set of molecules
Give the value in % but do not write % after it.

>>> number("COc1ccc(C(=O)N/N=C/c2ccccc2)cc1")
-18.1
>>> number("O=C(OCC1OC(n2cnc3c(Cl)ncnc32)C(OC(=O)c2ccccc2)C1OC(=O)c1ccccc1)c1ccccc1 (configuration not stated)")
-13.3
>>> number("O=C(O)/C=C\\C(=O)Nc1ccc(N=Nc2ccccc2)cc1")
-2.9
>>> number("COc1ccc2ncc(C)c(CO)c2c1")
-2.65
>>> number("O=[N+]([O-])C1C2C=CC(C2)[C@H]1c1ccco1 (some centres not stated)")
-4.95

Q. Identify the reported growth inhibition for the following entry. Cc1ccc(N=Nc2ccc(C)cc2NC(=O)c2ccc(Cl)cc2)cc1
A. 8.85

Q. Identify the reported growth inhibition for the following entry. NC(=O)c1csc(N)n1
A. -7.7

* * *

EXPERIMENT_NOTES: NCI Yeast Anticancer Drug Screen. Data for the sgs1 mgt1 strain (AID 161);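 note: 0% = growth of cultures given vehicle only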
CONDITION_LABEL: S. cerevisiae sgs1 mgt1 strain, at 50.0 µM
This is part of a sample that, as a whole, favours compounds with a hit. Of some 79,000 tested, about 15% had one in any assay. Calls of active or inactive are those of the source. No stated cut-off is given here; in the data, active means growth inhibition above about 70%; inactive means the rest.
Entry note: the call must match one of yes (active), no (inactive)

>>> assigned_class("C=CCNC(=S)N1c2ccccc2NC(=O)CC1C (centres undefined)")
"no"
>>> assigned_class("CC(=O)c1c(C)c(C)c(=O)n(C/C=C(\\C)CCC=C(C)C)c1O")
"yes"
>>> assigned_class("Cc1ccc(N=C(c2ccccc2)c2ccc([N+](=O)[O-])cc2)cc1")
"no"
>>> assigned_class("CCCCC/C=C/C(CC)(C(=O)OCC)C(=O)OCC")
"no"
>>> assigned_class("C/C(=N\\NC(N)=O)c1ccc(Cl)c(-n2cccc2)c1")
"no"
>>> assigned_class("O=C1COCC(=O)N1")
"no"
>>> assigned_class("COC(CC1(OC)OC(=O)C=C1N)OC (centres undefined)")
"no"
>>> assigned_class("CCCCCC/C=N/Nc1ccc([N+](=O)[O-])cc1[N+](=O)[O-]")
"no"

Q. Outcome? CCN(CC)CCNc1cc2ccccc2c2sc3ccccc3c(=O)c12
A. yes

Q. Outcome? C(=C\c1ccccn1)/c1ccc(/C=C/c2ccccn2)cc1
A. no

Q. Outcome? O=c1c(Br)c(-c2ccccc2)[nH]c2ccccc12
A. no

Q. Outcome? CC(=O)c1cc(Cl)ccc1OCC(O)CNc1ccc(Cl)cc1C(=O)c1ccccc1 (centres undefined)
A. no

Q. Outcome? O=c1c2ccccc2n2c(-c3ccccc3O)nnc2n1-c1ccccc1
A. no

Q. Outcome? CC1OC(OC2C(OC(=O)[C@]34CCC(C)(C)C[C@H]3C3=CC[C@@H]5[C@@]6(C)CC[C@H](OC7OC(C(=O)O)C(O)C(OC8OCC(O)C(O)C8O)C7O)C(C)(C)[C@@H]6CC[C@@]5(C)[C@]3(C)CC4)OCC(O)C2O)C(O)C(OC2OCC(O)C(O)C2O)C1OC1OCC(O)C(OC2OCC(O)C(O)C2O)C1O (some centres undefined)
A. no
